# EXPERIMENTAL TARGET: S. cerevisiae H^+-ATPase (Saccharomyces cerevisiae, UniProt P05030)
# Construct: transformed with the full-length cDNA of the S. cerevisiae plasma membrane H^+-ATPase isoform PMA1; made in house; host or cells: S. cerevisiae RS72
# Sequence (P05030 whole entry, canonical isoform): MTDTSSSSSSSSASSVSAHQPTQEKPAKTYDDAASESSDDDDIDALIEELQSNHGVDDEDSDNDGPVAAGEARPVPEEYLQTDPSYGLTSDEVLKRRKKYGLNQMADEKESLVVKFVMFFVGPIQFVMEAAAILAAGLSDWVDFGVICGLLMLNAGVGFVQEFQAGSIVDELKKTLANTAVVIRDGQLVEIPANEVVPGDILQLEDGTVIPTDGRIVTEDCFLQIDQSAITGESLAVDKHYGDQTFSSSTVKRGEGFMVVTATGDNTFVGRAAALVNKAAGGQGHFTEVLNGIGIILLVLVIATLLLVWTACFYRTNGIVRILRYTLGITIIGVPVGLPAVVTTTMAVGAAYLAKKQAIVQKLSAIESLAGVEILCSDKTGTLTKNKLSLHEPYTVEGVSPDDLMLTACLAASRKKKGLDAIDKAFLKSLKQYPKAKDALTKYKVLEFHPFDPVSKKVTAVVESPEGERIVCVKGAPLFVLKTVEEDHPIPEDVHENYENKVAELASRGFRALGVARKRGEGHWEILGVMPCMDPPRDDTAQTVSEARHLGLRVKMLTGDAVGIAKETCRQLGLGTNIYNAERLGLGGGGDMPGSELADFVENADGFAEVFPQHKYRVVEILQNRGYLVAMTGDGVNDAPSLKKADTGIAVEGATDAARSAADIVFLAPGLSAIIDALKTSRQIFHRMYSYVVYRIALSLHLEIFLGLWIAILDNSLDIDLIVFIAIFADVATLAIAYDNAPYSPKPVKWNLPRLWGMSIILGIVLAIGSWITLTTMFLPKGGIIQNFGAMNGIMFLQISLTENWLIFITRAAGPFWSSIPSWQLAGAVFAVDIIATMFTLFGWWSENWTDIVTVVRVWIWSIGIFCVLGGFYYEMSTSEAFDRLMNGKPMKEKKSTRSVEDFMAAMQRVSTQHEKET
# PROCEDURE TEXT: Colorimetric ATPase assay (ATP hydrolysis), S. cerevisiae plasma membranes
# Format: biochemical
# MEASUREMENT SETUP: pH 7, n = 3
This listing pairs molecules with measured IC50.

- MOLECULE: "CN1CCN(CC(O)Cn2c3ccc(C#N)cc3c3cc(C#N)ccc32)CC1 (stereo not drawn)"
  IC50: "> 167 µM"
- MOLECULE: "COc1ccc2c(c1)c1cc(OC)ccc1n2CC(O)CN1CCN(C)CC1 (stereo not drawn)"
  IC50: "> 167 µM"
- MOLECULE: "CN1CCN(CC(O)Cn2c3ccc(O)cc3c3cc(O)ccc32)CC1 (stereo not drawn)"
  IC50: "> 167 µM"
